Details: 298.15 K; 101.33 kPa; Liquid; Vibrating tube method
Parameter measured: mass density (kg/m3)

P = CCCCCCC
Q = CCn1cc[n+](C)c1.N#CN=C=[N-] [1-ethyl-3-methylimidazolium dicyanamide]
Which entry has a larger number for mass density, P or Q ? Reply briefly: the label of your chosen item.
Q
(Q: 1102.03 kg/m3, P: 679.57 kg/m3)

====

Assay: refractive index (Na D-line) (dimensionless)
Conditions: 298.15 K; 101.33 kPa; Liquid; Standard Abbe refractometry
Parameter measured: refractive index

{"Compound": "CCn1cc[n+](C)c1.N#CN=C=[N-] [1-ethyl-3-methylimidazolium dicyanamide]", "refractive index": 1.51452}
{"Compound": "CCCCCCC [heptane]", "refractive index": 1.38529}
{"Compound": "Cc1ccccc1 [toluene]", "refractive index": 1.49398}
{"Compound": "C1CCCCC1 [cyclohexane]", "refractive index": 1.42356}
